EXPERIMENTAL SYSTEM: NEK2 (human) (UniProt P51955)
Sequence (P51955 whole entry, looked up): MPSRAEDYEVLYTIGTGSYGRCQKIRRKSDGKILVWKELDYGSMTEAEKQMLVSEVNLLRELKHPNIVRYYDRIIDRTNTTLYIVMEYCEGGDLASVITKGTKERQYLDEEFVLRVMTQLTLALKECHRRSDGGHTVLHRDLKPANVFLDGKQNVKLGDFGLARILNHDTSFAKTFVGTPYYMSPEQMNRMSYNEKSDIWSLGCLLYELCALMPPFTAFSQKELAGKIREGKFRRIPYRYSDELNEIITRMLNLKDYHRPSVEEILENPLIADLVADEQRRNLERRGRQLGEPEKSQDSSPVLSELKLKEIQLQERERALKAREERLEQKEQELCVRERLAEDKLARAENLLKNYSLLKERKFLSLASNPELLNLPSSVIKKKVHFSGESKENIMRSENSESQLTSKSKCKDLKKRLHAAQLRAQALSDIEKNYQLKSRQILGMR
PROTOCOL SUMMARY: radiometric filter-binding kinase assay
CONDITIONS: compound 0.1 µM

COMPOUND	EXPERIMENTAL SYSTEM	residual activity / %
COc1cc(O)c2c(c1)[C@H]1OC1C[C@H](O)[C@H](O)C(=O)/C=C\C[C@H](C)OC2=O (some centres undefined)	NEK2 (human) (UniProt P51955)	127
O=C(N[C@@H](COc1ccc2[nH]c(=O)[nH]c2c1)c1ccccc1)c1cccn(Cc2ccc(F)c(F)c2)c1=O	NEK2 (human) (UniProt P51955)	107
Cc1ccc(Sc2cnc(Nc3cccc(Br)n3)s2)cc1C(=O)N1CCN(C(=O)CN)CC1	NEK2 (human) (UniProt P51955)	108
CCc1cncnc1N1CCN(Cc2nc3cc(C(F)(F)F)ccc3[nH]2)CC1	NEK2 (human) (UniProt P51955)	95
O=C(O)c1ccc(-c2c[nH]c3ncc(-c4ccccc4)cc23)cc1C1CCCC1	NEK2 (human) (UniProt P51955)	114
C=CC(=O)N1CCC[C@@H](n2nc(-c3ccc(Oc4ccccc4)cc3)c3c(N)ncnc32)C1	NEK2 (human) (UniProt P51955)	93
CCn1c(-c2nonc2N)nc2cncc(CNC3CCNCC3)c21	NEK2 (human) (UniProt P51955)	98
O=C(NCCCNc1nc(Nc2cccc(CN3CCOCC3)c2)ncc1C1CC1)C1CCC1	NEK2 (human) (UniProt P51955)	107
CN1CCN(CCOc2cc(OC3CCOCC3)c3c(Nc4c(Cl)ccc5c4OCO5)ncnc3c2)CC1	NEK2 (human) (UniProt P51955)	94

====

Catalogue of residual activity readings, one per entry.
EXPERIMENTAL SYSTEM: BRSK2 (human)
PROTOCOL SUMMARY: radiometric filter-binding kinase assay
CONDITIONS: compound 0.01 µM

COMPOUND	EXPERIMENTAL SYSTEM	UNIT ABBREVIATION	residual activity
O=C(Nc1nc2cc(C(F)(F)F)cc(NC3CC3)n2n1)c1cccnc1	BRSK2 (human)	%	116
CNC(=O)C1[C@H]2O[C@@](C)([C@@H]1N)n1c3ccccc3c3c4c(c5c6ccccc6n2c5c31)C(=O)NC4 (stereo not given in full)	BRSK2 (human)	%	16
C/C(=C1/C(=O)Nc2ccc(NC(N)=O)cc21)c1ccc[nH]1	BRSK2 (human)	%	21
COc1cc(O)c2c(c1)[C@H]1OC1C[C@H](O)[C@H](O)C(=O)/C=C\C[C@H](C)OC2=O (stereo not given in full)	BRSK2 (human)	%	114
CNc1nc(-c2ccc3c(N)n[nH]c3c2)cc(N2C[C@@H](C(=O)NC3CCCCC3)CC[C@H]2C)n1	BRSK2 (human)	%	114

====

EXPERIMENTAL SYSTEM: CSNK2A1 (human) (UniProt P68400)
Sequence (P68400 whole entry, looked up): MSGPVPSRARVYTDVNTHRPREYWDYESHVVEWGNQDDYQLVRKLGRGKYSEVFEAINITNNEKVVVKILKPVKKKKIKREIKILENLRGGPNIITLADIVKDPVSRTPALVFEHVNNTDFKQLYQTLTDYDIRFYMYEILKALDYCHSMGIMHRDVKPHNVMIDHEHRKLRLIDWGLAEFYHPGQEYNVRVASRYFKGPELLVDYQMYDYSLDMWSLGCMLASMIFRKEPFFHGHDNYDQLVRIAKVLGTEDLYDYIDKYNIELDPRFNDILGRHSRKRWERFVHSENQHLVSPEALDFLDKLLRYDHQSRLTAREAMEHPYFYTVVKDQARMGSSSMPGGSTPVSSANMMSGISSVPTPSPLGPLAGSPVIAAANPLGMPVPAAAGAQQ
PROTOCOL SUMMARY: radiometric filter-binding kinase assay
CONDITIONS: compound 0.1 µM
PROPERTY NAME: residual activity (%)

COMPOUND	VALUE
NC(=O)c1cc(-c2ccnc(NC3CCCCC3)c2)nc(N2CCNCC2)c1	107
CCc1cncnc1N1CCN(Cc2nc3cc(C(F)(F)F)ccc3[nH]2)CC1	96
Cc1cc(NC(=O)c2cccc(NC(=O)/C=C/CN(C)C)c2)ccc1Nc1nccc(-c2cccnc2)n1	93
CNC(=O)C1[C@H]2O[C@@](C)([C@@H]1N)n1c3ccccc3c3c4c(c5c6ccccc6n2c5c31)C(=O)NC4 (stereo not given in full)	108
c1ccc2c(-c3cnn4cc(-c5ccc(N6CCNCC6)cc5)cnc34)ccnc2c1	90

Cited source: the kinase profiling compilation of Christmann-Franck et al. (2016)
